test system: MALME-3M melanoma; assay: NCI tumour cell line growth inhibition, 48 h
In this section we review reported TGI values for a set of compounds.
Write down the numeric answer in µM and omit the unit.

COc1ccc(C[C@H]2COC(=O)[C@@H]2Cc2cccc(Br)c2)cc1OC: 47.6

[ask] // query TGI value for entry CCOC(=O)c1c(-c2ccc(OC)cc2)c(C#N)c2c(C#N)c(N)nn2c1N
[reply] 82.7

[ask] // query TGI value for entry CC1(C)N=C(N)N=C(N)N1c1ccc(CCCCc2ccc(Cl)c(S(=O)(=O)F)c2)c(Cl)c1
[reply] 12.5

[ask] // query TGI value for entry C=CCN1CCC23c4c5ccc(O)c4OC2C(=NN=C2CCC4(O)C6Cc7ccc(O)c8c7C4(CCN6CC=C)C2O8)CCC3(O)C1C5 (stereo not given)
[reply] 33.4

----------
In this section we review reported log10 of TGI values for a set of molecules.
system: RXF 393 renal; assay: NCI tumour cell line growth inhibition, 48 h
Recorded TGI (log10, µM)

[N-]=[N+]=NCc1nc(N)c2c3c(sc2n1)CCCC3: 1.29
COC(=O)/C=C\C(C#N)(C#N)N=Cc1cc(Br)cs1: 0.73
S=c1[nH]c2c(Cl)c(Cl)c(Cl)c(Cl)c2[nH]1: 1.55
CC(C)(C)[Si](C)(C)Oc1ccc(C2CNC(=O)C23CCC(=O)N3Cc2ccccc2)cc1 (stereo not given): 1.37
COc1ccc(-c2nnc(N3CCN(C(=O)CN4CCN(c5ccccc5)CC4)CC3)nc2-c2ccc(OC)cc2)cc1: 1.35
CC1(C)N=C(N)N=C(N)N1c1ccc(CCCCc2ccc(Cl)c(S(=O)(=O)F)c2)c(Cl)c1: 1.44

[ask] // query log10 of TGI value for entry Cc1ccc2c(C3C(C#N)=C(N)Oc4cc5ccccc5cc43)cc(=O)oc2c1 (stereo not given)
[reply] 0.79

[ask] // query log10 of TGI value for entry CC1OC(OC2C(OC(=O)[C@]34CCC(C)(C)C[C@H]3C3=CC[C@@H]5[C@@]6(C)CC[C@H](OC7OC(CO)C(O)C(O)C7OC7OC(CO)C(O)C(O)C7O)C(C)(C)[C@@H]6CC[C@@]5(C)[C@]3(C)CC4)OCC(O)C2O)C(O)C(OC2OCC(O)C(O)C2O)C1OC1OCC(O)C(OC2OCC(O)C(O)C2O)C1O (stereo not given in full)
[reply] 1.74

[ask] // query log10 of TGI value for entry COc1ccc(-c2cc(/C=C/C(=O)c3ccc(OC)c(OC)c3)[nH]n2)cc1
[reply] 0.47

----------
In this section we review reported log10(TGI) values for a set of compounds.
test system: LOX IMVI melanoma; assay: NCI tumour cell line growth inhibition, 48 h
Recorded TGI (log10, µM)

O=[P@@]1(c2ccccc2)O[C@H](COCc2ccccc2)[C@@H](OCc2ccccc2)[C@H](OCc2ccccc2)[C@H]1NCc1ccccc1: 1.27
CC1=C(CO)C2=C(C)C3(CC3)[C@@](C)(O)C(=O)C2=C1: 0.50
Nc1n[nH]c(=O)c2c1c(I)cn2C1OC(CO)C(O)C1O (stereo not given): 1.03
O=C1c2cccc3cccc(c23)C(=O)N1CCCCCN1CCN(CCCCCOc2ccc(-c3nc4ccc(N5CCOCC5)cc4[nH]3)cc2)CC1: 0.90
CC(=O)O[C@H]1CC[C@@]2(C)C(=CC[C@H]3[C@@H]4C/C(=C\c5ccc(N(C)C)cc5)[C@H](OC(C)=O)[C@@]4(C)CC[C@@H]32)C1: 1.32
C=CCC1(CN(C)C)CC/C(=C\c2ccc(Cl)cc2)C1=O (stereo not given): 1.72

[ask] // query log10(TGI) value for entry S=c1[nH]c2c(Cl)c(Cl)c(Cl)c(Cl)c2[nH]1
[reply] 1.61

[ask] // query log10(TGI) value for entry CC(C)C(C/C=C1\CC(CO)(COC(=O)C(C)(C)C)OC1=O)C(C)C (stereo not given)
[reply] 1.25
